meta.source: paper PMC3781056

Provide the reported melting point of each item.

Example molecules with recorded melting point:
> print(dat)
                                 smiles.str  measured.quantity     recorded.value
1        CNc1nc(Cl)nc2c1c(-c1ccc(F)cc1)nn2C      melting point  189.9 to 192.3 °C
2  CNc1ncnc2c1c(-c1cccc3ccccc13)nn2C(C)(C)C      melting point  152.4 to 156.3 °C
3       CNc1nc(Cl)nc2c1c(-c1ccc(OC)cc1)nn2C      melting point  159.3 to 160.9 °C
4          COc1ccc(-c2nn(C)c3ncnc(N)c23)cc1      melting point      185 to 188 °C
5      COc1ccc(-c2nn(C)c3nc(Cl)nc(N)c23)cc1      melting point           > 250 °C

Next molecule, please.
Prompt: Would you mind telling me what melting point value was observed for CNc1ncnc2c1c(-c1ccc(OC)cc1)nn2C(C)(C)C ?
Completion: 89.3 to 91.2 °C

* * *

Test system: PC3 cells
Assay: MTT assay
Format: cell-based
Conditions: read-out: IC50 for cell death (MTT); PC3 cells, 72 h
MEASURED QUANTITY: IC50

Prompt: Would you mind telling me what IC50 value was observed for CC(C)(C)n1nc(-c2cccc3ccccc23)c2c(N)ncnc21 [Compound 1-NA-PP1] ?
Completion: ~20 µM

* * *

Molecular target: PKD1 (Homo sapiens, UniProt Q15139)
Construct: GST; purchased Enzo Life sciences (Farmingdale, NY)
Sequence (Q15139 whole entry): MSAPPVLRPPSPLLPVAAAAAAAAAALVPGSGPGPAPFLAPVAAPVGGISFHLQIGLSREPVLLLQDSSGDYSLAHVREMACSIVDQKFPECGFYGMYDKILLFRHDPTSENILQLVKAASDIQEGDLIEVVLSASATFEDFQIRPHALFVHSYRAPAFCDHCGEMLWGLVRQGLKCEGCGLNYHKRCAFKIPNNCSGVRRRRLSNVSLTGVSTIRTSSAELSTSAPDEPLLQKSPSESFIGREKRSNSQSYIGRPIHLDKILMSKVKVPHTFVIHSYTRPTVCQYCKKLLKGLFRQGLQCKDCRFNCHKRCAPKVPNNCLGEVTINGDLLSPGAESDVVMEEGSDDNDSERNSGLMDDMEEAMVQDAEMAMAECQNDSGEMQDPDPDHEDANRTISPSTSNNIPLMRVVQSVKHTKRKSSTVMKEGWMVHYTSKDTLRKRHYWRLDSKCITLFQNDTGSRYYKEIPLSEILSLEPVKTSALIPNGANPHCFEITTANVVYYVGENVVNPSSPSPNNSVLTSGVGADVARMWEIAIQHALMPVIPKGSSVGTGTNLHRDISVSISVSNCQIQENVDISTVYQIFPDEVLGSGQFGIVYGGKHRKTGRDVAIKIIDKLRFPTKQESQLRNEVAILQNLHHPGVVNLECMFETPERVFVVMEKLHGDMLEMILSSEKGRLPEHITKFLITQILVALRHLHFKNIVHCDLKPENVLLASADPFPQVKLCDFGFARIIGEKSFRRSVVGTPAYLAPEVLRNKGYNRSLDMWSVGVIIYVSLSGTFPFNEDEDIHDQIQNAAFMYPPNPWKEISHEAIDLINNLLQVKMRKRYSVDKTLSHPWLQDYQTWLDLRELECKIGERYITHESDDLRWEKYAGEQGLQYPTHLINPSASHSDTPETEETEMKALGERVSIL
Assay: Radiometric PKD kinase assay, 10-point IC50
Type: biochemical
Settings: value in the figure; read-out: PKD1 IC50
MEASURED QUANTITY: IC50 (nM)
One number for each entry, in nM.

Prompt: IC50 of O=C(c1ccc(Nc2nccc(-c3cc4ccccc4s3)n2)cc1)N1CCC(N2CCCC2)CC1 [IKK-16, reference compound] on PKD1 (Homo sapiens, UniProt Q15139)?
Completion: 162

* * *

Biological target: Recombinant human PKD3 (Homo sapiens, UniProt O94806)
Sequence (O94806 whole entry): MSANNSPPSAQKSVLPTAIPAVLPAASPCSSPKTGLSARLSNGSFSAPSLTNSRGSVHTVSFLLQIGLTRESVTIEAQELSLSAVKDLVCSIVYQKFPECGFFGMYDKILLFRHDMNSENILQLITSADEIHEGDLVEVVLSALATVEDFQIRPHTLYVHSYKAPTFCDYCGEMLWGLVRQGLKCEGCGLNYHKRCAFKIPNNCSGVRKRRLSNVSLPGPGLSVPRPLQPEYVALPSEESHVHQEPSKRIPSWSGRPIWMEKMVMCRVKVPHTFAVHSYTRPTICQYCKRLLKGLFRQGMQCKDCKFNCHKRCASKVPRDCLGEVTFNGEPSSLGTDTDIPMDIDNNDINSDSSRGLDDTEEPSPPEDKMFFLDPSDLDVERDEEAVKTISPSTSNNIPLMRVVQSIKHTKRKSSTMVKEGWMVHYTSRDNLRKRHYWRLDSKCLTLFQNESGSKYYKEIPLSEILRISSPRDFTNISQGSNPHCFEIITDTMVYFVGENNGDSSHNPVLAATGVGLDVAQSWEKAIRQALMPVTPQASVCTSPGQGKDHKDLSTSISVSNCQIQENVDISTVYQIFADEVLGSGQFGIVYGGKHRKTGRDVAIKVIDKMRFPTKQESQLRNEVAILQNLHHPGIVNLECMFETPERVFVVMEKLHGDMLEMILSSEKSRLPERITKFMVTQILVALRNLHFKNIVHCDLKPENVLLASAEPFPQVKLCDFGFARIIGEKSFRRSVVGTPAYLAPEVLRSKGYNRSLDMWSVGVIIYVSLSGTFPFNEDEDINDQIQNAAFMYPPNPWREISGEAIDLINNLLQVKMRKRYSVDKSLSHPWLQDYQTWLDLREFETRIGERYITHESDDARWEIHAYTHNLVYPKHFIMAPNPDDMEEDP
Assay: Radiometric PKD kinase assay, 10-point IC50
Type: biochemical
MEASURED QUANTITY: IC50 (nM)
Numbers only, in nM.

Prompt: Would you mind telling me what IC50 value was observed for CC(C)(C)n1nc(-c2cccc3ccccc23)c2c(N)ncnc21 ?
Completion: 109

* * *

Provide the reported % PKD1 Inhibition of each item.
Target: PKD1 (Homo sapiens)
Construct: GST; purchased Enzo Life sciences (Farmingdale, NY)
Experiment: In vitro radiometric PKD1 screening assay at 1 µM
Type: biochemical
Details: 1 µM; targeted kinase inhibitor library screen; relative to DMSO
Procedure: Phosphorylation of HDAC5 was detected in a kinase reaction having 1 µCi [γ-^32P] […] The reaction was incubated at 30°C for 10 minutes and 25 µL of the reaction was spotted on Whatman P81 filter paper. The filter paper was washed 3 times in 0.5% phosphoric acid, air dried and counted using Beckman LS6500 multipurpose scintillation counter. Percent PKD1 inhibition was graphed using GraphPad Prism software 5.0.
One number for each entry, in %.

Example compounds with recorded % PKD1 Inhibition:
> print(dat)
                                   compound  measured.quantity  recorded.value
1  Cc1ccccc1C(=O)c1ccc(Nc2ccc(Br)cc2N)cc1Cl  % PKD1 Inhibition              68
2  O=C1Nc2cc(Br)ccc2/C1=C1/Nc2ccccc2/C1=N\O  % PKD1 Inhibition              47
3   Fc1ccc(Cl)cc1-c1nc(Nc2ccncc2)c2nccnc2n1  % PKD1 Inhibition              74
4  O=C1NC(=O)c2c1c1c3ccccc3n3c1c1c2c2ccccc2n1C1CCC3O1  % PKD1 Inhibition              85
5  O=C(c1ccc(Nc2nccc(-c3cc4ccccc4s3)n2)cc1)N1CCC(N2CCCC2)CC1 [IKK-16, reference compound]  % PKD1 Inhibition              67

Return reported % PKD1 Inhibition values for all items listed beneath this line.
1. NC(=O)c1ccc(-c2nc(-c3ccc4c(c3)OCCO4)c(-c3ccccn3)[nH]2)cc1
2. O=C1NC(=O)c2c1c1c3ccccc3[nH]c1c1[nH]c3ccccc3c21
3. Cl.Cl.O=S(=O)(NCCNC/C=C/c1ccc(Br)cc1)c1cccc2cnccc12 [H 89 Dihydrochloride]
4. CS(=O)(=O)O.Cn1cc(C2=C(c3cn(CCCSC(=N)N)c4ccccc34)C(=O)NC2=O)c2ccccc21 [Ro 31-8220 Mesylate]

Completion:
45
75
66
72

* * *

Target: Recombinant human PKD2 (Homo sapiens)
Sequence (Q9BZL6 1-878): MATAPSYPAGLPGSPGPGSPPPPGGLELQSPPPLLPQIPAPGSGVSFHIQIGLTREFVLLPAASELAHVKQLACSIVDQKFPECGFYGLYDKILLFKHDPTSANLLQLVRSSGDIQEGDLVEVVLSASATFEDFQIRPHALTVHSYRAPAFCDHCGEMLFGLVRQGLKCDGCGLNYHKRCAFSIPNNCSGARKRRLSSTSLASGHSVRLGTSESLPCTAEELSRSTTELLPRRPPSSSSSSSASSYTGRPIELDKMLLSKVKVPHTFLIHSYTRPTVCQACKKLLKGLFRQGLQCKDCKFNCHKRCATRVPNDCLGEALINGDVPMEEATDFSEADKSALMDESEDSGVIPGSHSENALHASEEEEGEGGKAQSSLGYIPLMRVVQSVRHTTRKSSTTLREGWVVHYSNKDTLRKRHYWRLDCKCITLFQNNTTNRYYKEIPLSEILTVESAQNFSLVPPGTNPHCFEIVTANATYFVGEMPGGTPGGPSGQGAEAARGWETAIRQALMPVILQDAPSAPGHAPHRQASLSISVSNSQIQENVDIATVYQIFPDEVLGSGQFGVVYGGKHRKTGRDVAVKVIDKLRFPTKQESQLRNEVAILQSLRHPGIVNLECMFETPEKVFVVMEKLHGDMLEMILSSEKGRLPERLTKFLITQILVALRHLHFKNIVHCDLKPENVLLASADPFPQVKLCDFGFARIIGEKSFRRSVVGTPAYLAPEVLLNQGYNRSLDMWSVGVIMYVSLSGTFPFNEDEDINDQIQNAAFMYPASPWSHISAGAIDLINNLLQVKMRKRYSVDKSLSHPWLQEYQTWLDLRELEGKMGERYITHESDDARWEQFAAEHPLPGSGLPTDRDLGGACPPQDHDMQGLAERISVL
Experiment: Radiometric PKD kinase assay, 10-point IC50
Format: biochemical
Conditions: value in the figure, representative graph; read-out: PKD2 IC50
MEASURED QUANTITY: pIC50
Give bare numbers, as −log10 of the molar value.

Prompt: pIC50 of O=C(c1ccc(Nc2nccc(-c3cc4ccccc4s3)n2)cc1)N1CCC(N2CCCC2)CC1 [IKK-16, reference compound] on Recombinant human PKD2 (Homo sapiens)?
Completion: 6.97

* * *

Target: PKD1 (Homo sapiens, UniProt Q15139)
Construct: GST; purchased Enzo Life sciences (Farmingdale, NY)
Experiment: Radiometric PKD kinase assay, 10-point IC50
Type: biochemical
Details: mean ± SEM; read-out: IC50 PKD1
MEASURED QUANTITY: pIC50
One number for each entry, as −log10 of the molar value.

Prompt: Would you mind telling me what pIC50 value was observed for O=C(c1ccc(Nc2nccc(-c3cc4ccccc4s3)n2)cc1)N1CCC(N2CCCC2)CC1 [IKK-16, reference compound] ?
Completion: 6.81

* * *

System: PC3 cells
Experiment: MTT assay
Format: cell-based
Conditions: Homo sapiens, PC-3, 72 h, read-out: IC50 for cell death (MTT), PC3 cells, 72 h
MEASURED QUANTITY: IC50 (µM)
Answers are plain numbers, in µM.

Prompt: Would you mind telling me what IC50 value was observed for CC(C)(C)n1nc(-c2cccc3ccccc23)c2c(N)ncnc21 [Compound 1-NA-PP1] ?
Completion: 23.3

* * *

Molecular target: Recombinant human PKD3 (Homo sapiens, UniProt O94806)
Assay: Radiometric PKD kinase assay, 10-point IC50
Assay type: biochemical
Conditions: value in the figure, representative graph; read-out: PKD3 IC50
MEASURED QUANTITY: IC50 (µM)
Answers are plain numbers, in µM.

Prompt: Would you mind telling me what IC50 value was observed for O=C(c1ccc(Nc2nccc(-c3cc4ccccc4s3)n2)cc1)N1CCC(N2CCCC2)CC1 [IKK-16, reference compound] ?
Completion: 0.097

* * *

Target: PKD isoforms
Experiment: Radiometric PKD kinase assay, summary statement for PKD isoforms
Conditions: approximate, all PKD isoforms; read-out: concentration that blocked 50% of PKD activity
MEASURED QUANTITY: IC50

Prompt: IC50 of CC(C)(C)n1nc(-c2cccc3ccccc23)c2c(N)ncnc21 on PKD isoforms?
Completion: ~100 nM

* * *

Target: Recombinant human PKD3 (Homo sapiens)
Assay: Radiometric PKD kinase assay, 10-point IC50
Type: biochemical
Conditions: PKD3 IC50, value printed in the figure, representative graph
MEASURED QUANTITY: pIC50
Numbers only, as −log10 of the molar value.

Prompt: Would you mind telling me what pIC50 value was observed for CC(C)(C)n1nc(-c2cccc3ccccc23)c2c(N)ncnc21 [Compound 1-NA-PP1] ?
Completion: 6.98
